Listed below: AC50 values for each entry.
# ASSAY SYSTEM: human GPR40 (Homo sapiens)
# Construct: expressed in transfected cells; host or cells: CHO-k1
# Sequence (O14842 whole entry): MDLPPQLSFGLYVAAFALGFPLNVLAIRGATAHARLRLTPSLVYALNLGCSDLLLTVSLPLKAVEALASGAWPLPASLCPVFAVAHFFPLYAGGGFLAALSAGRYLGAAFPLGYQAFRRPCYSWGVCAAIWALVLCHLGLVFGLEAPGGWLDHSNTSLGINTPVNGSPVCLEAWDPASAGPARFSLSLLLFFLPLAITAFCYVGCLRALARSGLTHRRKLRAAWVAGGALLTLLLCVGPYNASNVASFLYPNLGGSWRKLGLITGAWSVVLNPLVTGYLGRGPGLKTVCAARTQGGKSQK
# EXPERIMENT SUMMARY: In vitro Ca2+ mobilization, CHO-k1 cells stably expressing human GPR40
# Format: cell-based
# MEASUREMENT SETUP: intracellular calcium, CHO-k1 cells expressing human GPR40; read-out: Ca2+ hGPR40 AC50
# Description: GPR120/40 Activation: In Vitro Ca^2+ Mobilization The activation of GPR120/40 by all compounds was determined by measuring changes in intracellular calcium levels using a Ca^2+ sensitive fluorescent dye. The experiments were performed using CHO-k1 cells stably expressing the human GPR120 or GPR40. […] Cell were treated with test compounds and controls at 10, 30 and 60 μM. The kinetic response was monitored over a period of 7 minutes (using FLIPRTETRA system). […]
ENDPOINT NAME: AC50 (µM)

Cc1cc(Br)cc(C)c1NS(=O)(=O)c1cccc(CCCCCCC(=O)O)c1: 19.8
Cn1nnc(NS(=O)(=O)c2cccc(CCCCCCC(=O)O)c2)n1: 10.7
Cc1nc(NS(=O)(=O)c2cccc(CCCCCCC(=O)O)c2)sc1C: 20.8
Cc1cc(OCc2ccccc2)cc(C)c1NS(=O)(=O)c1cccc(CCCCCCC(=O)O)c1: 12.4
Cc1nsc(NS(=O)(=O)c2cccc(CCCCCCC(=O)O)c2)n1: 13.9
Cc1noc(C)c1NS(=O)(=O)c1cccc(CCCCCCC(=O)O)c1: 12.1
Cc1cc(-c2ccccc2)cc(C)c1NS(=O)(=O)c1cccc(CCCCCCC(=O)O)c1: 23.7
